The reported measurements were obtained from the supplement of paper PMC11061612.

System: OV-56 (Ovarian Carcinoma);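 note: after 72 h of two-drug dosing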
test.details: Bliss excess, mean over the matrix (fraction); higher = more synergy

compound	assayed.system	Bliss excess
COc1cc2c(cc1OCCCCCOc1cc3c(cc1OC)C(=O)N1C=C(C)C[C@H]1C=N3)N=C[C@@H]1CC(C)=CN1C2=O [SG3199] + O=C(c1cc(Cc2n[nH]c(=O)c3ccccc23)ccc1F)N1CCN(C(=O)C2CC2)CC1 [Olaparib] (first compound max 0.001 µM, 7x7, partner max 10 µM)	OV-56 (Ovarian Carcinoma)	-0.0297
COc1cccc(OCCCN)c1-c1cc(Nc2cnc(C#N)cn2)n[nH]1 [Prexasertib] + Cc1cc2ncnn2cc1Nc1ncc2c(n1)n(C1CCOCC1)c(=O)n2C [AZD7648] (first compound max 1 µM, 7x7, partner max 10 µM)	OV-56 (Ovarian Carcinoma)	-0.0467
C=CCn1c(=O)c2cnc(Nc3ccc(N4CCN(C)CC4)cc3)nc2n1-c1cccc(C(C)(C)O)n1 [AZD1775] + C1CN(CCC1(C(=O)N[C@@H](CCO)C2=CC=C(C=C2)Cl)N)C3=NC=NC4=C3C=CN4 [Capivasertib] (first compound max 3 µM, partner max 3 µM)	OV-56 (Ovarian Carcinoma)	-0.0263
Cc1c2c(nn1C)CSCc1cc(n(C)n1)CSc1cc(c3ccccc3c1)OCCCc1c(C(=O)O)n(C)c3c-2c(Cl)ccc13 [AZD5991] + Cc1cc2ncnn2cc1Nc1ncc2c(n1)n(C1CCOCC1)c(=O)n2C [AZD7648] (first compound max 1 µM, 7x7, partner max 10 µM)	OV-56 (Ovarian Carcinoma)	-0.0059
C=CCn1c(=O)c2cnc(Nc3ccc(N4CCN(C)CC4)cc3)nc2n1-c1cccc(C(C)(C)O)n1 [AZD1775] + C[C@@H]1COCCN1C2=NC(=NC(=C2)C3(CC3)[S@](=N)(=O)C)C4=C5C=CNC5=NC=C4 [AZD6738] (first compound max 1 µM, partner max 10 µM)	OV-56 (Ovarian Carcinoma)	0.0141
